Consider the following compounds; for each one, report its Percent Effect.
- Tested on: Wolbachia pipientis
- Assay Info: Anti-Wolbachia Cell-Based Screen
- Format: functional
- Set-up: scale not given: in the data most compounds retested in dose-response had high values
- Condition Summary: 5 µM
Screen size: about 48,000 compounds; about 13,000 (27%) showed an effect of 50% or more. Some of the results follow.
# number only, unit % dropped from output

Query: Write down the reported Percent Effect of "CCCc1nc(C(=O)N[C@H]2COC[C@@H]2N2CCN(C)CC2)cs1" , test system: Wolbachia pipientis.
Reply: 87.61

Query: Now consider "Cc1ccc2nc(C)cc(C(=O)N[C@H]3COC[C@@H]3N3CCOCC3)c2c1" .
Reply: -2.538

Query: Consider next the compound "Cc1cc(C)n2nc(C(=O)N[C@H]3C[C@H]4CN(C)CCN4C3)cc2n1" in the same way.
Reply: -14.62

Query: Next: "CC(C)=CCN1C[C@H]2CC[C@@H]1CN(S(=O)(=O)c1cccnc1)C2"
Reply: -24.05

Query: Same read-out for "O=C(c1cccnc1)N1CCO[C@@H]2CNC[C@@H]21" ?
Reply: 100.8

Query: One more compound: CN(C)c1ncc2c(n1)C1(CCN(CC3CC3)C1)COC2.O=C(O)C(F)(F)F (stereo not drawn)
Reply: -11.31

Query: Please give the result for CN(C)c1cc(C2CCCNC2)ccn1.Cl.Cl (stereo not drawn) too.
Reply: 113.5

Query: # iterate: "CCN1C[C@H]2[C@@H](C1)N(c1ncc(F)cn1)CC[C@H]2OC.O=C(O)C(F)(F)F.O=C(O)C(F)(F)F"
Reply: 2.548

Query: Entry "O=C(N[C@H]1COC[C@@H]1N1CCCC1)c1csc(Cc2ccccc2)n1" please
Reply: 115.4

Query: Item: "O=C(O)C(F)(F)F.O=C1[C@H]2CN(Cc3cccs3)C[C@H]2CN1c1cncnc1"
Reply: 0.1136

Query: Next: "O=C(N[C@H]1COC[C@@H]1N1CCCC1)c1c[nH]nc1C1CCCCC1"
Reply: 3.503

Query: Now give it for c1cncc(NCCNC2CCCNC2)c1 (stereo not drawn) too.
Reply: 1.696

Query: Here is the next compound: Cc1cc(C)nc(C2CCCNC2)n1.Cl.Cl (stereo not drawn)
Reply: 131.4

Query: Input Cc1cc(N(C)C)nc(N2CCCC2c2cccnc2)n1 (stereo not drawn)
Reply: 6.252

Query: // same read-out, input: Cc1cccc(CN2CC3C[C@]3(NC(=O)c3ccco3)C2)n1 (stereo partly drawn)
Reply: -15.21

Query: Next compound: "CN(C)C(=O)CN1C[C@@H]2OCCN(c3ncc(F)cn3)[C@@H]2C1"
Reply: 104.1

Query: Then this compound: Cc1ccnc(CC(C)N(C)Cc2ccc3c(c2)CCO3)c1 (stereo not drawn)
Reply: 8.665

Query: What about "CCc1ncc(CN(CCc2ccccc2)Cc2cccs2)cn1.O=C(O)CC(O)(CC(=O)O)C(=O)O" ?
Reply: 50.24
